test: small molecules captured by biotinylated probe aFGF10 – biochemical, small-molecule microarray, fluorescence 635/667, stem cell growth factor project, primary screen (AID 1071); details: higher = more signal;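 also: score merges 667 nm spot intensity and signal to noise from triplicate slides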
Form field: composite z-score (one value per entry).

[
  {
    "Compound": "O=C(NCc1ccccc1)[C@@H]1c2ccccc2C(=O)N(Cc2ccc(OC(F)(F)F)cc2)[C@H]1c1ccc(CO)cc1",
    "composite z-score": -0.225
  },
  {
    "Compound": "COc1ccc(C(O)C2C=CC3C(=O)N(C)C(=O)C3N2N(c2ccccc2)c2ccccc2)cc1 (stereo not drawn)",
    "composite z-score": 0.209
  },
  {
    "Compound": "CCCCCCc1nc(Cc2cc(OC)c(OC)c(OC)c2)cc2c1[Si](C(C)C)(C(C)C)O[C@H]2c1ccccc1",
    "composite z-score": 0.0804
  },
  {
    "Compound": "C=CCC(OC(C)=O)[C@@H]1[C@@H](N(Cc2cc3ccccc3o2)C(=O)c2cccc3ccccc23)c2cc(OCCCO)ccc2N1C(=O)c1ccc2ccccc2n1 (stereo partly drawn)",
    "composite z-score": 0.0823
  },
  {
    "Compound": "[N-]=[N+]=Nc1ccccc1[C@@H]1OC(c2ccc(OCCCO)cc2)=N[C@]1(Cc1ccccc1)C(=O)NCCN1CCOCC1",
    "composite z-score": 0.916
  },
  {
    "Compound": "Cc1ccc(S[C@]2(C(=O)NC3CC3)CC(=O)N(C(C)C)[C@@H]2c2ccc(CO)cc2I)cc1",
    "composite z-score": 0.0084
  },
  {
    "Compound": "C=C(COC)C(=O)CC[C@@H](OC(C)=O)c1ccccc1OCCO",
    "composite z-score": 1.39
  },
  {
    "Compound": "COC(=O)[C@@]1(Cc2ccccc2)N=C(c2ccc(OCCCO)cc2)O[C@H]1c1ccccc1CN=[N+]=[N-]",
    "composite z-score": 0.0585
  }
]

---

assay: plasmodial surface anion channel blockers, osmotic lysis – cell-based, P. falciparum Indochina, OD700, 2 h, primary screen (AID 1155);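 also: lysis reports solute entry through the parasite surface anion channel PSAC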; conditions: P. falciparum Indochina infected erythrocytes, called active from +8 up or from −8 down
Calls of active or inactive are those of the source.
Labels: 1.0 (active), 0.0 (inactive)

[
  {
    "Compound": "CN(C)CCCCNC(=O)[C@H]1C[C@H]2C(=O)NCC(=O)N2[C@H]1c1ccc(O)cc1",
    "Class": 0.0
  },
  {
    "Compound": "[N-]=[N+]=Nc1ccccc1[C@@H]1OC(c2ccc(OCCCO)cc2)=N[C@]1(CCS(=O)(=O)c1ccccc1)C(=O)NCC(O)CO (stereo partly drawn)",
    "Class": 1.0
  },
  {
    "Compound": "O=C1O[C@H](c2ccccc2)[C@H](c2ccccc2)N2[C@H]1[C@@H](C(=O)O)[C@]1(C(=O)Nc3ccc(C#CCCO)cc31)[C@H]2c1ccc(OCCO)cc1",
    "Class": 0.0
  },
  {
    "Compound": "COc1ccc([Si](C)(C)[C@H]2[C@H](CCO)O[C@@]3(C(=O)N(Cc4cccc(N5C(=O)c6ccccc6Oc6ccccc65)c4)c4ccccc43)[C@@H]2C)cc1",
    "Class": 0.0
  },
  {
    "Compound": "CN1C(=O)C2C(C1=O)C1C=C(CCCO)C2C(C2CC2)N1Cc1cccc(OC(F)(F)F)c1 (stereo not drawn)",
    "Class": 0.0
  },
  {
    "Compound": "CC(C)(C)OC(=O)CC[C@]1(C(=O)NCC(O)CO)N=C(c2ccc(OCCCO)cc2)O[C@H]1c1ccccc1N=[N+]=[N-] (stereo partly drawn)",
    "Class": 1.0
  },
  {
    "Compound": "O=C1C[C@@](C(=O)NCc2ccccc2)(c2ccc([N+](=O)[O-])cc2)[C@@H](c2ccc(CO)cc2)N1C1CCCCC1",
    "Class": 0.0
  },
  {
    "Compound": "Cc1ccc(S[C@]2(C(=O)NCCCN(C)C)CC(=O)N(C3Cc4ccccc4C3)[C@@H]2c2ccc(CO)cc2I)cc1",
    "Class": 0.0
  }
]
